# Test system: Sabra mice
# TEST SUMMARY: Zymosan-induced inflammatory paw swelling, measured with a caliper
# Format: in vivo
# TEST PARAMETERS: zymosan in left hind paw, paw swelling by caliper, 300 milligrams formulation (cannabinoid in propylene glycol, xylitol solid phase) in 15 milliliters water, oral gavage
TEST READOUT: reduction in inflammation relative to controls

- MOLECULE: "CC1=C[C@H]2c3c(O)cc(CCc4ccccc4)cc3OC(C)(C)[C@H]2CC1"
  READOUT VALUE: "modest reduction"
- MOLECULE: "CCCCCCC(C)(C)c1cc(O)c2c(c1)OC(C)(C)C1CCC(=O)CC21 (centres unmarked)"
  READOUT VALUE: "modest reduction"
- MOLECULE: "CCCCCc1cc(O)c2c(c1)OC(C)(C)[C@@H]1CCC(C)=C[C@@H]21"
  READOUT VALUE: "modest reduction"
